// data source = ChEMBL document CHEMBL2021886

Test: Blood clearance in Sprague-Dawley rat at 1 mg/kg, iv
Format: ADME, organism-based
Design: dose 1 mg/kg, route intravenous
metric: clearance (mL/min/kg)
Give bare numbers, in mL/min/kg.

- query_smiles: "Cl.O=C(Nc1ccc(-c2nnc(NCCCN3CCCCC3)o2)cc1)c1ccccc1F"
  metric: "clearance"
  experimental_result: 67

Below are 2 compounds. Give each one its clearance.
1. COc1cc(NC(=O)c2ccccc2F)ccc1-c1nnc(NCCCN2CCOCC2)o1.Cl
2. COc1cc(NC(=O)c2ccccc2F)ccc1-c1nnc(NCCCN2CCCCC2)o1.Cl

a:
1: 41; 2: 28

* * *

Assay: Drug uptake in Lister Hooded rat blood at 3 mg/kg, po after 3 hrs
Assay type: ADME, organism-based
Design: dose 3 mg/kg, route oral
Conditions: read-out: Drug uptake
Answer each item with its documented concentration at 3 h.
Answers are plain numbers, in nM.

Illustrative cases are given below, each with its answer.
- query_smiles: "COc1cc(NC(=O)c2ccccc2F)ccc1-c1nnc(NCCCN2CCOCC2)o1.Cl"
  experimental_result: 294
- query_smiles: "COc1cc(NC(=O)c2ccccc2F)ccc1-c1nnc(NCCCN2CCCCC2)o1.Cl"
  experimental_result: 270

Pending compound:
Noted for `Cl.O=C(Nc1ccc(-c2nnc(NCCCN3CCCCC3)o2)cc1)c1ccccc1F` : its concentration at 3 h reads 205

* * *

Assay: Intrinsic permeability of the compound in MDCK cells expressing MDR1
Assay type: ADME, cell-based, Canis lupus familiaris
Settings: dog
metric: Papp (×10⁻⁶ cm/s)
One number for each entry, in ×10⁻⁶ cm/s.

Consider `COc1cc(NC(=O)c2ccccc2F)ccc1-c1nnc(NCCCN2CCCCC2)o1` . Its measured Papp is 32.5

* * *

Test system: Blood
Assay: Drug level in novel object recognition model of rat blood at 0.1 mg/kg, po
Type: ADME, organism-based
Design: dose 0.1 mg/kg, route oral
Conditions: in vivo, read-out: Drug uptake
metric: concentration (nM)
Give bare numbers, in nM.

Summary for this molecule, `COc1cc(NC(=O)c2ccccc2F)ccc1-c1nnc(NCCCN2CCCCC2)o1` : concentration is 205

* * *

Assay: Half life in Sprague-Dawley rat at 1 mg/kg, iv
Format: ADME, organism-based
Set-up: dose 1 mg/kg, route intravenous
Conditions: in vivo
metric: half-life (h)
Numbers only, in h.

- query_smiles: "Cl.O=C(Nc1ccc(-c2nnc(NCCCN3CCCCC3)o2)cc1)c1ccccc1F"
  experimental_result: 2.9
- query_smiles: "COc1cc(NC(=O)c2ccccc2F)ccc1-c1nnc(NCCCN2CCOCC2)o1.Cl"
  experimental_result: 0.6

Turning now to a further compound:
For this compound ( `COc1cc(NC(=O)c2ccccc2F)ccc1-c1nnc(NCCCN2CCCCC2)o1.Cl` ), measured half-life is 3.2

* * *

Please respond with reported CLH for every item in the list.
Tested on: Liver
Assay: Clearance in rat liver assessed per gram of tissue
Type: ADME, tissue-based
Conditions: in vivo

Here is how some molecules turned out for CLH.
- query_smiles: "COc1cc(NC(=O)c2ccccc2F)ccc1-c1nnc(NCCCN2CCCCC2)o1.Cl"
  CLH: "< 0.5 mL/min/g"
- query_smiles: "Cl.O=C(Nc1ccc(-c2nnc(NCCCN3CCCCC3)o2)cc1)c1ccccc1F"
  CLH: "< 0.2 mL/min/g"

Consider the record given below.
Given item `COc1cc(NC(=O)c2ccccc2F)ccc1-c1nnc(NCCCN2CCOCC2)o1.Cl` , the value recorded as its CLH is < 0.5 mL/min/g
